Every entry's value here was drawn from ChEMBL document CHEMBL1833938.

Test system: Staphylococcus aureus
Test: microbe, parasite or virus in culture
Settings: ATCC 29213
ENDPOINT NAME: MIC

Worked cases, MIC given:
Q: Check Staphylococcus aureus data and give MIC for "CO[C@@H]1[C@@H](OC(N)=O)[C@@H](O)[C@H](Oc2ccc3c(O)c(NC(=O)c4cc(CC=C(C)C)c(O)c(CN5CCN(c6ncccn6)CC5)c4)c(=O)oc3c2C)OC1(C)C" .
Result: > 64 µg/mL

Q: Please look at "CO[C@@H]1[C@@H](OC(N)=O)[C@@H](O)[C@H](Oc2ccc3c(O)c(NC(=O)c4cc(CC=C(C)C)c(O)c(CN(C)C(=O)c5ccccc5)c4)c(=O)oc3c2C)OC1(C)C" and tell me its recorded MIC on Staphylococcus aureus.
Result: > 64 µg/mL

From here, focus on the item given below.
Q: Give reported MIC for "CO[C@@H]1[C@@H](OC(N)=O)[C@@H](O)[C@H](Oc2ccc3c(O)c(NC(=O)c4cc(CC=C(C)C)c(O)c(CN5CCN(CCCN(C)C)CC5)c4)c(=O)oc3c2C)OC1(C)C" (Staphylococcus aureus)
Result: > 64 µg/mL

====

Assay: physchem
Settings: octanol/water, pH 1.5
// values below are reported logD
Give the figure by itself; no unit, no explanation.

Worked examples, 2 compounds total:
Q: Give a short answer stating reported logD for "CO[C@@H]1[C@@H](OC(N)=O)[C@@H](O)[C@H](Oc2ccc3c(O)c(NC(=O)c4cc(CC=C(C)C)c(O)c(CN(C)C(=O)c5ccccc5)c4)c(=O)oc3c2C)OC1(C)C" .
Result: 4.28

Q: Consider the compound "CO[C@@H]1[C@@H](OC(N)=O)[C@@H](O)[C@H](Oc2ccc3c(O)c(NC(=O)c4cc(CC=C(C)C)c(O)c(CN(C)C(=O)Cc5nnn[nH]5)c4)c(=O)oc3c2C)OC1(C)C" and give its recorded logD.
Result: 1.9

Here's the next entry for you.
Q: Respond only with logD recorded for "CO[C@@H]1[C@@H](OC(N)=O)[C@@H](O)[C@H](Oc2ccc3c(O)c(NC(=O)c4cc(CC=C(C)C)c(O)c(CN(C)C(=O)C(C)(C)C)c4)c(=O)oc3c2C)OC1(C)C"
Result: 4.23

====

Test: physchem
Conditions: octanol/water, pH 7.4
Rule: logD below 1 gives fulfilled. Equal to or above 1 gives not fulfilled.

Solved entries (count: 3):
Q: Given the entry "CO[C@@H]1[C@@H](OC(N)=O)[C@@H](O)[C@H](Oc2ccc3c(O)c(NC(=O)c4cc(CC=C(C)C)c(O)c(CN(C)C(=O)CCC(=O)O)c4)c(=O)oc3c2C)OC1(C)C" , would its reported logD be below 1?
Result: fulfilled

Q: Threshold test, logD < 1: "CO[C@@H]1[C@@H](OC(N)=O)[C@@H](O)[C@H](Oc2ccc3c(O)c(NC(=O)c4cc(CC=C(C)C)c(O)c(CN(C)C(=O)CS(C)(=O)=O)c4)c(=O)oc3c2C)OC1(C)C"
Result: fulfilled

Q: Bench note: check whether "CO[C@@H]1[C@@H](OC(N)=O)[C@@H](O)[C@H](Oc2ccc3c(O)c(NC(=O)c4cc(CC=C(C)C)c(O)c(CN(C)C(=O)[C@H](C)OC(C)=O)c4)c(=O)oc3c2C)OC1(C)C" shows logD below 1
Result: not fulfilled

---
Q: Is 1 strictly greater than the molecule's reported logD? molecule: "CCN(CC)Cc1cc(C(=O)Nc2c(O)c3ccc(O[C@@H]4OC(C)(C)[C@H](OC)[C@@H](OC(N)=O)[C@H]4O)c(C)c3oc2=O)cc(CC=C(C)C)c1O"
Result: not fulfilled

Q: Could you please tell me whether logD recorded for "CO[C@@H]1[C@@H](OC(N)=O)[C@@H](O)[C@H](Oc2ccc3c(O)c(NC(=O)c4cc(CC=C(C)C)c(O)c(CN5CCN(c6ncccn6)CC5)c4)c(=O)oc3c2C)OC1(C)C" is less than 1?
Result: not fulfilled

Q: Given "CO[C@@H]1[C@@H](OC(N)=O)[C@@H](O)[C@H](Oc2ccc3c(O)c(NC(=O)c4cc(CC=C(C)C)c(O)c(CN(C)C(=O)CN(C)C)c4)c(=O)oc3c2C)OC1(C)C" , is recorded logD strictly lower than 1?
Result: not fulfilled

Q: Could you please tell me whether logD recorded for "CO[C@@H]1[C@@H](OC(N)=O)[C@@H](O)[C@H](Oc2ccc3c(O)c(NC(=O)c4cc(CC=C(C)C)c(O)c(CN(C)C(=O)C(C)(C)C)c4)c(=O)oc3c2C)OC1(C)C" is less than 1?
Result: not fulfilled

Q: # check: logD < 1 for "CO[C@@H]1[C@@H](OC(N)=O)[C@@H](O)[C@H](Oc2ccc3c(O)c(NC(=O)c4cc(CC=C(C)C)c(O)c(CN(C)C(=O)CCCS(N)(=O)=O)c4)c(=O)oc3c2C)OC1(C)C"
Result: fulfilled

Q: Is 1 strictly greater than the molecule's reported logD? molecule: "CO[C@@H]1[C@@H](OC(N)=O)[C@@H](O)[C@H](Oc2ccc3c(O)c(NC(=O)c4cc(CC=C(C)C)c(O)c(CN(C)C(=O)c5ccccc5)c4)c(=O)oc3c2C)OC1(C)C"
Result: not fulfilled

Q: Does the reported logD of the following molecule sit strictly below 1? "CO[C@@H]1[C@@H](OC(N)=O)[C@@H](O)[C@H](Oc2ccc3c(O)c(NC(=O)c4cc(CC=C(C)C)c(O)c(CN(C)C(=O)Cc5nnn[nH]5)c4)c(=O)oc3c2C)OC1(C)C"
Result: fulfilled

Q: Record "CO[C@@H]1[C@@H](OC(N)=O)[C@@H](O)[C@H](Oc2ccc3c(O)c(NC(=O)c4cc(CC=C(C)C)c(O)c(CN(C)C(=O)CNC(C)=O)c4)c(=O)oc3c2C)OC1(C)C" : is its logD strictly below 1?
Result: fulfilled

Q: Dear colleague, could you confirm whether logD of "CO[C@@H]1[C@@H](OC(N)=O)[C@@H](O)[C@H](Oc2ccc3c(O)c(NC(=O)c4cc(CC=C(C)C)c(O)c(CN5CCN(CCCN(C)C)CC5)c4)c(=O)oc3c2C)OC1(C)C" falls below 1? Thanks.
Result: fulfilled

Q: Hello, I'm reviewing records and need to know if logD of "CO[C@@H]1[C@@H](OC(N)=O)[C@@H](O)[C@H](Oc2ccc3c(O)c(NC(=O)c4cc(CC=C(C)C)c(O)c(CN5CCCC5)c4)c(=O)oc3c2C)OC1(C)C" is below 1. Could you check?
Result: not fulfilled

====

Assay: physchem
Conditions: octanol/water, pH 5
ENDPOINT NAME: logD
Keep the answer to the number alone.

Q: Tell me measured logD for "CO[C@@H]1[C@@H](OC(N)=O)[C@@H](O)[C@H](Oc2ccc3c(O)c(NC(=O)c4cc(CC=C(C)C)c(O)c(CN5CCCC5)c4)c(=O)oc3c2C)OC1(C)C" please.
Result: 0.38

Q: // Input: "CCN(CC)Cc1cc(C(=O)Nc2c(O)c3ccc(O[C@@H]4OC(C)(C)[C@H](OC)[C@@H](OC(N)=O)[C@H]4O)c(C)c3oc2=O)cc(CC=C(C)C)c1O" . Output its logD only.
Result: 0.81

Q: Fill in reported logD for this entry: "CO[C@@H]1[C@@H](OC(N)=O)[C@@H](O)[C@H](Oc2ccc3c(O)c(NC(=O)c4cc(CC=C(C)C)c(O)c(CN(C)C(=O)CNC(C)=O)c4)c(=O)oc3c2C)OC1(C)C"
Result: 1.32

====

Entries annotated with measured logD
Test: physchem
Settings: octanol/water, pH 6.5
Returns: the value as a bare number; no unit string appended.

Q: # return recorded logD for entry "CO[C@@H]1[C@@H](OC(N)=O)[C@@H](O)[C@H](Oc2ccc3c(O)c(NC(=O)c4cc(CC=C(C)C)c(O)c(CN(C)C(=O)CCC(=O)O)c4)c(=O)oc3c2C)OC1(C)C"
Result: -0.61

Q: Give logD for the following compound: "CO[C@@H]1[C@@H](OC(N)=O)[C@@H](O)[C@H](Oc2ccc3c(O)c(NC(=O)c4cc(CC=C(C)C)c(O)c(CN(C)C(=O)C(C)(C)C)c4)c(=O)oc3c2C)OC1(C)C"
Result: 4.1

Q: Determine its reported logD: "CO[C@@H]1[C@@H](OC(N)=O)[C@@H](O)[C@H](Oc2ccc3c(O)c(NC(=O)c4cc(CC=C(C)C)c(O)c(CN5CCCC5)c4)c(=O)oc3c2C)OC1(C)C"
Result: 1.34

Q: Please indicate logD recorded for "CO[C@@H]1[C@@H](OC(N)=O)[C@@H](O)[C@H](Oc2ccc3c(O)c(NC(=O)c4cc(CC=C(C)C)c(O)c(CN(C)C(=O)CNC(C)=O)c4)c(=O)oc3c2C)OC1(C)C"
Result: 1.19

Now for a further compound.
Q: Annotate the compound "CO[C@@H]1[C@@H](OC(N)=O)[C@@H](O)[C@H](Oc2ccc3c(O)c(NC(=O)c4cc(CC=C(C)C)c(O)c(CN(C)C(=O)CS(C)(=O)=O)c4)c(=O)oc3c2C)OC1(C)C" with its measured logD.
Result: 1.15
